- Run Description: AUC (0 to infinity) in Sprague-Dawley rat at 4 mg/kg, iv measured upto 24 hrs by LC-MS/MS analysis
- Assay type: ADME, organism-based
- Set-up: time < 24 hrs, dose 4 mg/kg, route iv
- Test Settings: in vivo
Reported Property: AUC(0-inf) (ng·h/mL)
# output: bare number, implied unit ng·h/mL

Noted for CNc1cc(F)cc2c1[nH]c1nc(Oc3cnc(C)nc3)nc(N3CC(=CC(C)N)C3)c12 (stereo unspecified) : its AUC(0-inf) reads 836

Entry under test: `CCC(CN)=C1CN(c2nc(Oc3cnc(C)nc3)nc3[nH]c4c(NC)cc(F)cc4c23)C1` . Its AUC(0-inf) was 776

Looking up CCC(CN)=C1CN(c2nc(Oc3cnc(C(C)O)nc3)nc3[nH]c4c(NC)cc(F)cc4c23)C1 (stereo unspecified) , I found its AUC(0-inf) recorded as 983

GET /value?item= `CCC(CO)=C1CN(c2nc(Oc3cnc(C)nc3)nc3[nH]c4c(NC)cc(F)c(F)c4c23)C1` &field=AUC(0-inf) returns 517

Record `CCCC(CN)=C1CN(c2nc(Oc3cnc(C)nc3)nc3[nH]c4c(NC)cc(F)cc4c23)C1` , field AUC(0-inf): 778

Entry CNc1cc(F)cc2c1[nH]c1nc(Oc3cnc(C)nc3)nc(N3CC(=C(C)C(C)N)C3)c12 (racemic) , AUC(0-inf) reported as 1510

---

Kindly state half-life for each of the entries shown.
- Run Description: Elimination half life in Sprague-Dawley rat at 5 mg/kg, iv measured upto 24 hrs by LC-MS/MS analysis
- Assay type: ADME, organism-based
- Test Settings: in vivo, read-out: beta t1/2 (converted)
Respond with the bare value in h.

half-life in this record for `CCNc1cc(F)cc2c1[nH]c1nc(Oc3cnc(C)nc3)nc(N3CC(=C(C)[C@@H](C)N)C3)c12` : 6.7

# half-life (compound: [2H]C([2H])([2H])Nc1cc(F)cc2c1[nH]c1nc(Oc3cnc(C)nc3)nc(N3CC(=C(C)C(C)N)C3)c12 (centres undefined) ) is 7.2

Item: `[2H]C([2H])([2H])Nc1cc(F)cc2c1[nH]c1nc(Oc3cnc(C)nc3)nc(N3CC(=C(C)[C@@H](C)N)C3)c12` | half-life: 6.5

The compound identified as `CNc1cc(F)cc2c1[nH]c1nc(Oc3cnc(C)nc3)nc(N3CC(=C(C)[C@@H](C)N)C3)c12` registered its half-life at 8.5

---

- Run Description: Metabolic stability in human liver microsome assessed as elimination half life at 0.1 uM in presence of NADPH incubated upto 60 mins by LC-MS/MS analysis
- Assay type: ADME
- Test Settings: liver microsomes, read-out: beta t1/2
Could you please mark satisfied for values of half-life at 0.1 µM below 2 h and not satisfied for values at or above it?

Query :: Determine if CCC(CN)=C1CN(c2nc(Oc3cnc(C(C)O)nc3)nc3[nH]c4c(NC)cc(F)cc4c23)C1 (stereo not drawn) shows half-life at 0.1 µM strictly lower than 2 h.
Result :: satisfied

Query :: Take the compound CNc1cc(F)cc2c1[nH]c1nc(Oc3cnc(C)nc3)nc(N3CC(=CC(C)N)C3)c12 (stereo not drawn) and say whether its half-life at 0.1 µM is less than 2 h.
Result :: satisfied

Query :: Criterion: half-life at 0.1 µM strictly below 2 h. Is it met by `[2H]C([2H])([2H])Nc1cc(F)cc2c1[nH]c1nc(Oc3cnc(C)nc3)nc(N3CC(=C(C)[C@@H](C)N)C3)c12` ?
Result :: not satisfied

Query :: Please indicate whether the reported half-life at 0.1 µM of [2H]C([2H])([2H])Nc1cc(F)cc2c1[nH]c1nc(Oc3cnc(C)nc3)nc(N3CC(=C(C)C(C)N)C3)c12 (stereo not drawn) is strictly below 2 h.
Result :: not satisfied

Query :: Does the reported half-life at 0.1 µM of `[2H]C([2H])([2H])Nc1cc(F)cc2c1[nH]c1nc(Oc3cnc(C)nc3)nc(N3CC(=C(CC)CN)C3)c12` stay below 2 h?
Result :: satisfied

Query :: Determine if `CNc1cc(F)cc2c1[nH]c1nc(Oc3cnc(C)nc3)nc(N3CC(=C(CN)C(C)C)C3)c12` shows half-life at 0.1 µM strictly lower than 2 h.
Result :: satisfied

Query :: Lab log: compare recorded half-life at 0.1 µM with 2 h; is it strictly lower for `CNc1cc(F)cc2c1[nH]c1nc(Oc3cnc(C)nc3)nc(N3CC(=C(C)[C@@H](C)N)C3)c12` ?
Result :: satisfied

Query :: Could you please tell me whether half-life at 0.1 µM recorded for `CCC(CO)=C1CN(c2nc(Oc3cnc(C)nc3)nc3[nH]c4c(NC)cc(F)cc4c23)C1` is less than 2 h?
Result :: satisfied

---

- Run Description: Metabolic stability in rat liver microsome assessed as intrinsic clearance at 0.1 uM in presence of NADPH incubated upto 60 mins by LC-MS/MS analysis
- Format: ADME
- Test Settings: microsomes, 1 h
Reported Property: CLH (mL/min/g)
The figure you give is taken to be in mL/min/g; do not add the unit.

The compound identified as `CNc1cc(F)cc2c1[nH]c1nc(Oc3cnc(C)nc3)nc(N3CC(=C(CN)C(C)C)C3)c12` registered its CLH at 118.3

For this compound ( `[2H]C([2H])([2H])Nc1cc(F)cc2c1[nH]c1nc(Oc3cnc(C)nc3)nc(N3CC(=C(C)[C@@H](C)N)C3)c12` ), measured CLH is 215

What the record says about CNc1cc(F)cc2c1[nH]c1nc(Oc3cnc(C)nc3)nc(N3CC(=C(C)C(C)N)C3)c12 (racemic) : CLH is 126

CLH for `CNc1cc(F)cc2c1[nH]c1nc(Oc3cnc(C)nc3)nc(N3CC(=C(C)[C@@H](C)N)C3)c12` is 252

// field: CLH; key: `CCC(CN)=C1CN(c2nc(Oc3cnc(CO)nc3)nc3[nH]c4c(NC)cc(F)cc4c23)C1` ; value = 176.4

// recorded CLH for `CCC(CN)=C1CN(c2nc(Oc3cnc(C)nc3)nc3[nH]c4c(NC)cc(F)cc4c23)C1` : 74.3

CLH measured on `CCCC(CN)=C1CN(c2nc(Oc3cnc(C)nc3)nc3[nH]c4c(NC)cc(F)cc4c23)C1` = 84.4

Record summary for `CCC(CO)=C1CN(c2nc(Oc3cnc(C)nc3)nc3[nH]c4c(NC)cc(F)cc4c23)C1` : reported CLH = 256.1

---

- Run Description: Metabolic stability in human liver microsome assessed as elimination half life at 0.1 uM in presence of NADPH incubated upto 60 mins by LC-MS/MS analysis
- Assay type: ADME
- Test Settings: liver microsomes, read-out: beta t1/2
Provide the recorded half-life at 0.1 µM for the entries that follow.
Report the value in h with no unit label.

In plain terms, CNc1cc(F)cc2c1[nH]c1nc(Oc3cnc(C)nc3)nc(N3CC(=C(C)C(C)N)C3)c12 (racemic) has a documented half-life at 0.1 µM of 8.23

Lookup result for `CCC(CN)=C1CN(c2nc(Oc3cnc(CO)nc3)nc3[nH]c4c(NC)cc(F)cc4c23)C1` ; measured half-life at 0.1 µM: 0.963

Notebook: `CCC(CN)=C1CN(c2nc(Oc3cnc(C)nc3)nc3[nH]c4c(NC)cc(F)cc4c23)C1` , half-life at 0.1 µM read as 2.45

half-life at 0.1 µM in this record for `CCCC(CN)=C1CN(c2nc(Oc3cnc(C)nc3)nc3[nH]c4c(NC)cc(F)cc4c23)C1` : 0.792

---

- Run Description: Volume of distribution at the steady state in Sprague-Dawley rat at 4 mg/kg, iv measured upto 24 hrs by LC-MS/MS analysis
- Format: ADME, organism-based
- Test Settings: in vivo, read-out: Vdss
For each of the compounds below, state its Vd.

// Vd value for CNc1cc(F)cc2c1[nH]c1nc(Oc3cnc(C)nc3)nc(N3CC(=C(C)C(C)N)C3)c12 (racemic) : 12.3 L/kg

Per the records, this compound ( CCC(CN)=C1CN(c2nc(Oc3cnc(C(C)O)nc3)nc3[nH]c4c(NC)cc(F)cc4c23)C1 (stereo unspecified) ) has Vd equal to 9.3 L/kg

The recorded Vd for CNc1cc(F)cc2c1[nH]c1nc(Oc3cnc(C)nc3)nc(N3CC(=CC(C)N)C3)c12 (stereo unspecified) is 33.4 L/kg

Vd in this record for `CCC(CO)=C1CN(c2nc(Oc3cnc(C)nc3)nc3[nH]c4c(NC)cc(F)c(F)c4c23)C1` : 68.4 L/kg

For record `CCC(CN)=C1CN(c2nc(Oc3cnc(C)nc3)nc3[nH]c4c(NC)cc(F)cc4c23)C1` the listed Vd is 14.7 L/kg

Reported Vd of `CCCC(CN)=C1CN(c2nc(Oc3cnc(C)nc3)nc3[nH]c4c(NC)cc(F)cc4c23)C1` : 22.5 L/kg
